STUDY_SYSTEM: CDK6/CCND1 (Homo sapiens)
PROCEDURE_DETAILS: CDK6 homogeneous time-resolved fluorescence (HTRF) kinase assay
Assay type: biochemical
CONDITION_LABEL: CDK6/CCND IC50 25-250 nM, CDK6/CCND; 25-250 nM marked x
PROPERTY_LABEL: IC50

I am curious: what IC50 value has been reported for CS(=O)(=O)c1ccc(Nc2cc3c(C4=CCNCC4)nccc3cn2)cc1 [Ex 146] ?
25 to 250 nM

---

STUDY_SYSTEM: CDK2/CCNE1 (Homo sapiens, UniProt P24941)
PROCEDURE_DETAILS: CDK2 homogeneous time-resolved fluorescence (HTRF) kinase assay
Format: biochemical
CONDITION_LABEL: CDK2/CCNE; x = IC50 <25 nM; read-out: CDK2/CCNE IC50 (<25 nM)
PROPERTY_LABEL: IC50

Look up IC50 with CDK2/CCNE1 (Homo sapiens, UniProt P24941) for this compound: COc1cc(S(=N)(=O)C(C)C)ccc1Nc1cc2c(C#Cc3ccc4c(c3)NC(=O)C43CCC3)nccc2cn1 (single isomer, unassigned)
< 25 nM

Also need `CCC1(CC)C(=O)Nc2cc(C#Cc3nccc4cnc(Nc5ccc(S(=O)(=O)C6CCC6)cc5)cc34)ccc21` , thanks.
< 25 nM

---

STUDY_SYSTEM: CDK6/CCND1 (Homo sapiens, UniProt Q00534)
Sequence (Q00534 whole entry): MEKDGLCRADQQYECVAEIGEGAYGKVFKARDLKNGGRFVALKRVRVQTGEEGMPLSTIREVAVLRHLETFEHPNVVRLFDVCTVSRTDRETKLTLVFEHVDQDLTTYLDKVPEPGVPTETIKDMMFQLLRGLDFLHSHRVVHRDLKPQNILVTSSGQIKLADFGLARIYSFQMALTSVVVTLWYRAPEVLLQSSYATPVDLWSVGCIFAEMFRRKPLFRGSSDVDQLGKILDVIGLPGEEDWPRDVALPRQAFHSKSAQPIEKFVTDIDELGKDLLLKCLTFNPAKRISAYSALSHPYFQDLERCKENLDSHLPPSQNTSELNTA
Sequence (P24385 whole entry partner): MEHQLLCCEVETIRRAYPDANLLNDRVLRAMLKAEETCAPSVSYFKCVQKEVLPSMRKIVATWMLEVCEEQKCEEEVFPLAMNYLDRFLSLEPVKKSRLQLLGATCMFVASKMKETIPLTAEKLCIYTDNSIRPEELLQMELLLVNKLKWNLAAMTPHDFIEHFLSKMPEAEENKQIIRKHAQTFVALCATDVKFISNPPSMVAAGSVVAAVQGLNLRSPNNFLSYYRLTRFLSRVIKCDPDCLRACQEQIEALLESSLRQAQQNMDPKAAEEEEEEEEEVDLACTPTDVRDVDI
PROCEDURE_DETAILS: CDK6 homogeneous time-resolved fluorescence (HTRF) kinase assay
Type: biochemical
CONDITION_LABEL: CDK6/CCND; >250 nM marked x; read-out: CDK6/CCND IC50 >250 nM
List of IC50 values.

>>> value("CS(=O)(=O)c1ccc(Nc2cc3c(ccnc3[C@H]3CC[C@H](C(=O)NC4CCOCC4)CC3)cn2)cc1 [Ex 226]")
"> 250 nM"

I am curious: what IC50 value has been reported for CCC1(CC)C(=O)Nc2cc(C#Cc3nccc4cnc(Nc5ccc(S(=N)(=O)C6CC6)cc5OC)cc34)ccc21 (single isomer, unassigned) [Ex 299] ?
> 250 nM

Also need N=S(=O)(c1ccc(Nc2cc3c(C#Cc4ccc5c(c4)NC(=O)C54CC4)nccc3cn2)c(F)c1)C1COC1 (single isomer, unassigned) [Example 275] , thanks.
> 250 nM

Also need CCC1(CC)C(=O)Nc2cc(C#Cc3nccc4cnc(Nc5ccc(S(=N)(=O)CC)cc5OC)cc34)ccc21 (single isomer, unassigned) [Ex 308] , thanks.
> 250 nM

Also need COc1cc(S(C)(=N)=O)ccc1Nc1cc2c(C#Cc3ccc4c(c3)NC(=O)C43CCC3)nccc2cn1 (single isomer, unassigned) [Ex 313] , thanks.
> 250 nM

Also need CS(=O)(=O)c1ccc(Nc2cc3c(C4CCN(S(=O)(=O)C5CC5)C4)nccc3cn2)cc1 (racemic) [Ex 239] , thanks.
> 250 nM

---

List of IC50 values.
STUDY_SYSTEM: CDK6/CCND1 (Homo sapiens, UniProt Q00534)
PROCEDURE_DETAILS: CDK6 homogeneous time-resolved fluorescence (HTRF) kinase assay
Assay type: biochemical
CONDITION_LABEL: >250 nM; CDK6/CCND; 1 mM ATP; read-out: CDK6/CCND IC50, >250 nM

>>> value("COc1cnc(NS(=O)(=O)c2ccc(Nc3cc4c(-c5ccc6c(cnn6CC(O)(C(F)(F)F)C(F)(F)F)c5C)nccc4cn3)cc2)nc1N1CCOCC1")
"> 250 nM"
>>> value("CC#Cc1nccc2cnc(Nc3ccc(S(=O)(=O)Nc4nccc(N5CCN(C)CC5)n4)cc3)cc12")
"> 250 nM"
>>> value("CS(=O)(=O)c1ccc(Nc2cc3c(C#Cc4cc(C(=O)O)c(N)cc4F)nccc3cn2)cc1")
"> 250 nM"
>>> value("Cc1c(-c2nccc3cnc(Nc4ccc(S(=O)(=O)Nc5ncccn5)cc4)cc23)ccc2c1cnn2CC(O)(C(F)(F)F)C(F)(F)F")
"> 250 nM"
>>> value("Cc1c(-c2nccc3cnc(Nc4ccc(S(=O)(=O)Nc5ccccc5)cc4)cc23)ccc2c1cnn2CC(C)(C)O")
"> 250 nM"
>>> value("Cc1c(-c2nccc3cnc(Nc4ccc(NS(=O)(=O)c5ccc(N6CCN(C)CC6)cc5)cc4)cc23)ccc2c1cnn2CC(C)(C)O")
"> 250 nM"

Look up IC50 with CDK6/CCND1 (Homo sapiens, UniProt Q00534) for this molecule: `CC[C@@H](C)NS(=O)(=O)c1ccc(Nc2cc3c(-c4ccc5c(cnn5CC(C)(C)O)c4C)nccc3cn2)cc1`
> 250 nM

Values from patent US20260325533A1
